Hello, the source for this data is patent US20240067632A1, in case you need it.

# target.of.assay: WEE1 (Homo sapiens, UniProt P30291+Q96SW2)
# Construct: C-terminal ePL-tagged (DiscoverX, Fremont, CA) full-length WEE1 expression construct; expressed in transfected cells; host or cells: LentiX-HEK293T (Invitrogen), lentiviral transduction; co-expressing GSPT1-GN (G576N, lacking the first 158 amino acids)
# assay.procedure: WEE1-ePL degradation assay (LentiX-WEE1-ePL-GSPT1-ND cells, InCELL Hunter luminescence, 4 h)
# Format: cell-based
# experimental.conditions: 293T-LentiX WEE1-ePL cells, read-out: 293T-LentiX WEE1-ePL Degradation 4 hr (EC50)
parameter.measured: DC50
The reply should consist of the numeric value with the unit placed after it.

Answered cases to consult:
{"columns": ["compound", "DC50"],
 "data": [
  ["CO[C@@H]1CN(Cc2ccc3nc(C4CCOCC4)ccc3c2)C[C@H]1Oc1ccc2c(c1)CN(C1CCC(=O)NC1=O)C2=O (stereo partly drawn)", "11.7 nM"],
  ["O=C1CCC(N2Cc3cc(O[C@H]4CCN(Cc5cc6ccccc6cn5)C4)c(F)cc3C2=O)C(=O)N1 (stereo partly drawn)", "10.6 nM"],
  ["O=C1CCC(N2Cc3cc(O[C@H]4CCN(Cc5ccc6nc(N7CC8(CCOCC8)C7)ncc6c5)C4)ccc3C2=O)C(=O)N1 (stereo partly drawn)", "16.6 nM"],
  ["O=C1CCC(N2Cc3cc(O[C@H]4CCN(Cc5cnc6ccc(F)c(F)c6c5)C4)ccc3C2=O)C(=O)N1 (stereo partly drawn)", "13.3 nM"],
  ["CN1CCC(c2ccc3cc(CN4CC[C@H](Oc5ccc6c(c5)CN(C5CCC(=O)NC5=O)C6=O)C4)ccc3n2)CC1 (stereo partly drawn)", "28.6 nM"]
]}

Can you look up DC50 on WEE1 (Homo sapiens, UniProt P30291+Q96SW2) for O=C1CCC(N2Cc3cc(O[C@H]4CCN(Cc5ccc6nc(N7CCCC78CCOCC8)ncc6c5)C4)ccc3C2=O)C(=O)N1 (stereo partly drawn) ? 18.1 nM

Quick one: O=C1CCC(N2Cc3cc(O[C@H]4CCN(Cc5ccc6ccccc6n5)C4)ccc3C2=O)C(=O)N1 (stereo partly drawn) 25.6 nM

Thanks! And O=C1CCC(N2Cc3cc(O[C@H]4CCN(Cc5ccc6cnccc6c5)C4)ccc3C2=O)C(=O)N1 (stereo partly drawn) ? 17 nM

Same again, this time with O=C1CCC(N2Cc3cc(O[C@H]4CCN(Cc5ccc6nc(C7CCOCC7)ccc6c5)C4)c(F)cc3C2=O)C(=O)N1 (stereo partly drawn) 3 nM
